Target: recombinant full-length USP7 (Homo sapiens)
Construct: A 25 μl reaction volume containing recombinant full-length USP7 (62 pM)
Sequence (Q93009 whole entry): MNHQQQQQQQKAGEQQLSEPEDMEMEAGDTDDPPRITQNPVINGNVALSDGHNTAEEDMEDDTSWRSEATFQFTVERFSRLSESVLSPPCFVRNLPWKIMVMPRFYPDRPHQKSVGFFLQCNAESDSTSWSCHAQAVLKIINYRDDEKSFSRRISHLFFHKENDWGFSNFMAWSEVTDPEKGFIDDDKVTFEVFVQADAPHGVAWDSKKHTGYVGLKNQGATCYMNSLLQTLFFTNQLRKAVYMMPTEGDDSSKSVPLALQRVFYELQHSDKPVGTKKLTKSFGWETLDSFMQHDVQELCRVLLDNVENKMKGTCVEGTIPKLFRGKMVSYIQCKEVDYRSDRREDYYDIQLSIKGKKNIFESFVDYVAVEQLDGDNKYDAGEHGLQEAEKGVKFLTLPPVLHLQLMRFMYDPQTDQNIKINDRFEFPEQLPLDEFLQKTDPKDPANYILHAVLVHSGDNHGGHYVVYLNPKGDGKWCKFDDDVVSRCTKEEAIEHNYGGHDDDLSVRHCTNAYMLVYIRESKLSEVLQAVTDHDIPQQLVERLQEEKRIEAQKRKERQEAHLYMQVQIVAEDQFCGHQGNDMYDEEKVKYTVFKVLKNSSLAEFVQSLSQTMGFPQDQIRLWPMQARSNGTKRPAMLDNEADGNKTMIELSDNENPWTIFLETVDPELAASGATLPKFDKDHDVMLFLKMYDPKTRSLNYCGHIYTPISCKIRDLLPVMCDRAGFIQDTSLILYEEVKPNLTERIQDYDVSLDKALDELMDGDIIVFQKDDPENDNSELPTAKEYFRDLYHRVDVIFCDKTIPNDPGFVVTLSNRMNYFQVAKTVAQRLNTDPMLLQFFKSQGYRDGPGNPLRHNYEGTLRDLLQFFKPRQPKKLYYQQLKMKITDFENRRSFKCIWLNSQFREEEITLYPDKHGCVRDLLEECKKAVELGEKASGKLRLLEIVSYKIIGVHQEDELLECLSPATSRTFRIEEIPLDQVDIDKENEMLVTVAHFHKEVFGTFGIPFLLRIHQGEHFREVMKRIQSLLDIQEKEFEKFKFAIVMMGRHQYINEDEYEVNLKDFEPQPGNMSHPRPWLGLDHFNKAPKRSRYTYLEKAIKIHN
Assay: USP7-mediated ubiquitin-rhodamine cleavage assay
Assay type: biochemical
Conditions: recombinant full-length USP7 62 pM; ubiquitin-rhodamine 100 nM; 30-minute incubation with compound, 1 hour reaction at room temperature; read-out: Potency: USP7 IC50
pIC50: −log10 of the molar value. Counter-ions that a name gives are not always drawn.
Task for the reader: assign each of the following compounds its reported pIC50.

• Cc1cc(Cl)cc(-c2ncnc3cc(CN4C(=O)C5CC5C4=O)sc23)c1O[C@@H]1CN(C)C[C@@H]1F (some centres unmarked) [Example 353, dihydrochloride] = > 6.00
• CCC(O)c1cc2nccc(-c3cc(Cl)cc(C)c3OC3CCCCNC3)c2s1 (centres unmarked) = 5.00 to 6.00
• Cc1cc(Cl)cc(-c2ccnc3cc(CN4C(=O)CCC4=O)sc23)c1O[C@H]1CCCNCC1 = > 6.00

For each listed entry, give its pIC50.
1. Cc1cc(Cl)cc(-c2ccnc3cc(CO)sc23)c1OC1C[C@@H]2C[C@H](C1)N2 (some centres unmarked)
2. Cc1cc(Cl)cc(-c2ncnc3cc(CN4C(=O)C5C(C4=O)C5(C)C)sc23)c1O[C@@H]1CCNC[C@@H]1F (some centres unmarked)
3. Cc1cc(C#N)cc(-c2ccnc3ccsc23)c1OCC1(C)CNC1
4. Cc1cc(Cl)cc(-c2ccnc3cc(CN4C(=O)CCC4=O)sc23)c1O[C@@H]1CC[C@@H](N)C1

*A*
["4.52 to 5.00", "> 6.00", "5.00 to 6.00", "> 6.00"]
